- System: CAKI-1
- assay-comment: NCI tumour cell line growth inhibition, 48 h
Calls of active or inactive are those of the source. Cut-off read from the data, not from the text of the source: active = GI50 up to about 1.1 µM and inactive = higher.
// allowed return values: active, inactive

- molecule: "CCN(CC)c1ccc2c(c1)OC(=O)C(c1nnc(-c3ccc([N+](=O)[O-])cc3)o1)C2 (stereo not given)"
  classification: "inactive"
- molecule: "CC(C)OP(=O)(OC(C)C)C(C(F)(F)F)C(F)(F)F"
  classification: "inactive"
- molecule: "C/C(=N\\Nc1nc2ccccc2o1)c1ncccn1"
  classification: "active"
- molecule: "Cc1ccccc1C(=O)c1ccccc1O"
  classification: "inactive"
- molecule: "O=C1c2ccccc2-c2nc(/C=C/c3ccccc3)cc3c2c1nc1ccccc13"
  classification: "inactive"
- molecule: "O=C1/C(=C/c2ccc(F)cc2)CNC/C1=C\\c1ccc(F)cc1"
  classification: "inactive"
- molecule: "COc1ccc(Cc2cc(OC)c(OC)c(OC)c2)cc1"
  classification: "active"
- molecule: "CC1(C)O[C@H]2OC(CO[Si](C)(C)C(C)(C)C)C(N=[N+]=[N-])[C@H]2O1 (stereo not given in full)"
  classification: "inactive"

Query :: Answer briefly: the call reported for CCN(CC)c1c(-c2c(N(CC)CC)c(OC(C)=O)c3sccn3c2=O)c(=O)n2ccsc2c1OC(C)=O in this assay.
Result :: inactive

Query :: Please state the recorded outcome for this molecule: COc1ccc(NC(=O)CC(=O)N2N=C(N(c3ccccc3)c3ccccc3)CC2c2ccccc2)cc1 (stereo not given)
Result :: inactive

---

- System: Malme-3M
- assay-comment: NCI tumour cell line growth inhibition, 48 h
Active and inactive are the calls of the source. No stated cut-off is given here; in the data, active = GI50 up to about 1.1 µM and inactive = higher.
measurement-kind: GI50

- molecule: "O=C(/C=N/O)Nc1cccc(Cl)c1I"
  result: "40.6 µM (inactive)"
- molecule: "CC(=O)O[C@@H](C1C[C@@H](C)[C@H]2[C@@](O)(O1)[C@H](O)[C@@]1(C)C3=CC[C@H]4C(C)(C)[C@@H](OC5OCC(O)C(O)C5O)CC[C@@]45C[C@@]35CC[C@]21C)C(C)(C)O (stereo not given in full)"
  result: "23.8 µM (inactive)"
- molecule: "O[C@]12c3ccccc3C1CCCC2N1CCOCC1 (stereo not given in full)"
  result: "> 100 µM (inactive)"
- molecule: "CC(C)NCC(O)c1cc(OCc2ccccc2)c(OCc2ccccc2)cc1NC(=O)CCC(=O)O (stereo not given)"
  result: "15.2 µM (inactive)"
- molecule: "c1ccc(C(c2cccc3c2ccc2ccccc23)C(c2ccccc2)c2cccc3c2ccc2ccccc23)cc1 (stereo not given)"
  result: "> 100 µM (inactive)"
- molecule: "N#CC(C#N)=Cn1c(=S)[nH]c2ccccc21"
  result: "> 100 µM (inactive)"
- molecule: "O=[N+]([O-])O [NITRIC ACID]"
  result: "> 100 µM (inactive)"
- molecule: "Clc1ccc(-c2cc(-c3nc4ccccc4[nH]3)no2)cc1"
  result: "19.3 µM (inactive)"

// GI50 value for NC(Cc1ccc2oc3cc(=O)c4ccccc4c-3nc2c1)C(=O)O (stereo not given) : 6.52 µM (inactive)

# molecule Cc1ccc2c(O)cc(-c3cccs3)nc2n1 ; its GI50 = 15.3 µM (inactive)

---

- Tested on: NCI-H522
- assay-comment: NCI tumour cell line growth inhibition, 48 h
Activity calls are given as the source filed them. Rule as the data show it: active = GI50 up to about 1.1 µM and inactive = higher.
// allowed return values: active, inactive

Check out these entries, answers already filled in.
- molecule: "C=C1C(=O)OC2/C=C(\\C)C3OC3/C=C(/C(=O)OC)C(OC(C)=O)C(OC(=O)C(C)(O)C(C)OC(C)=O)C12 (stereo not given)"
  tgt: "NCI-H522"
  classification: "active"
- molecule: "CCCCCCCCCCCCC(=O)CCCCC(=O)O"
  tgt: "NCI-H522"
  classification: "inactive"
- molecule: "Cc1cc(C)nc(NS(=O)(=O)c2ccc(NC(=O)c3cccc4c(NNc5ccc(S(=O)(=O)N=C(N)N)cc5)c5ccccc5nc34)cc2)n1"
  tgt: "NCI-H522"
  classification: "inactive"
- molecule: "O=C(CC(=O)Nc1cccc(C(=O)O)c1)Nc1cccc(C(=O)O)c1"
  tgt: "NCI-H522"
  classification: "inactive"
- molecule: "COc1ccc2c(C)cc(C)nc2n1"
  tgt: "NCI-H522"
  classification: "inactive"
- molecule: "COc1cc(CC2c3cc(OC)c(OC)cc3CCN2C)ccc1O (stereo not given)"
  tgt: "NCI-H522"
  classification: "inactive"

Query :: Called result for Cc1ccc(/C=C2\CN(C)CC3=C2OC(N)=C(C#N)C3c2ccc(C)cc2)cc1 (stereo not given)
Result :: inactive

Query :: For Cc1nc(C)c(N2CCN(S(=O)(=O)N(Cc3ccccc3)Cc3ccccc3)CC2)c(O)n1 , what call appears in the results of this test?
Result :: inactive

Query :: # outcome recorded in this test, key = CCOc1cccc(-c2cc(O)c3cc4c(cc3n2)OCO4)c1
Result :: active

Query :: So what was the verdict on COc1cccc(/C=N/n2c(Cc3ccc(Cl)cc3)n[nH]c2=O)c1 in this test?
Result :: inactive
